assayedTarget: T1, human GPC3 on cells (human, UniProt P51654 25-554)
T1 construct: whole, on cells; over-expressed on CHOK1 cells or endogenous on HEPG2, Hep3B and Huh-7 hepatocellular carcinoma cells; the cell line is named under assay; also called GPC3-CHOK1 cells; human GPC3 over-expressed CHOK1 cells
procedureDetails: FACS, Huh-7 cells
Please respond with reported EC50 for every item in the list.
# number only, unit µg/mL dropped from output

Need EC50 of Hu 52H5D3B8-4 (antibody, V domains shown, humanized 52H5D3B8; also called 52H5D3B8 VH1 + VL1) VH: EVQLVQSGAEVKKPGASVKVSCKASGYTFTDYEMHWVRQAPGQGLEWMGAIHPGSGGTAYNQKFKGRVTMTRDTSISTAYMELSRLRSDDTAVYYCTRFYSYAYWGQGTLVTVSS VL: DVVMTQTPLSLSVTPGQPASISCRSSQSLVHSNGNTYLQWYLQKPGQSPQLLIYKVSNRFSGVPDRFSGSGSGTDFTLKISRVEAEDVGVYFCSQSIHVPYTFGGGTKVEIK , thanks. 0.0196

Another binder to check: Hu 52H5D3B8-1 (antibody, V domains shown, humanized 52H5D3B8; also called 52H5D3B8 VH0 + VL0) VH: EVQLVQSGAEVKKPGASVKVSCKASGYTFTDYEMHWVRQAPGQGLEWMGAIHPGSGGTAYNQKFKGRVTMTRDTSISTAYMELSRLRSDDTAVYYCARFYSYAYWGQGTLVTVSS VL: DVVMTQTPLSLSVTPGQPASISCRSSQSLVHSNGNTYLQWYLQKPGQSPQLLIYKVSNRFSGVPDRFSGSGSGTDFTLKISRVEAEDVGVYYCSQSIHVPYTFGGGTKVEIK 0.0243

Another binder to check: Hu 52H5D3B8-9 (antibody, V domains shown, humanized 52H5D3B8; also called 52H5D3B8 VH4 + VL0) VH: EVQLVQSGAEVKKPGASVKVSCKASGYTFTDYEMHWVRQAPGQGLEWIGAIHPGSGGTAYNQKFKGRVTLTADKSISTAYMELSRLRSDDTAVYYCTRFYSYAYWGQGTLVTVSS VL: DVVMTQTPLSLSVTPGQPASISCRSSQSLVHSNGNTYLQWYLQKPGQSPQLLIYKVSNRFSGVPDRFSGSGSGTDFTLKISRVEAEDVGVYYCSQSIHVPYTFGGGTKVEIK 0.0348
